target: D(1A) dopamine receptor (Homo sapiens, UniProt P21728)
Sequence (P21728 whole entry): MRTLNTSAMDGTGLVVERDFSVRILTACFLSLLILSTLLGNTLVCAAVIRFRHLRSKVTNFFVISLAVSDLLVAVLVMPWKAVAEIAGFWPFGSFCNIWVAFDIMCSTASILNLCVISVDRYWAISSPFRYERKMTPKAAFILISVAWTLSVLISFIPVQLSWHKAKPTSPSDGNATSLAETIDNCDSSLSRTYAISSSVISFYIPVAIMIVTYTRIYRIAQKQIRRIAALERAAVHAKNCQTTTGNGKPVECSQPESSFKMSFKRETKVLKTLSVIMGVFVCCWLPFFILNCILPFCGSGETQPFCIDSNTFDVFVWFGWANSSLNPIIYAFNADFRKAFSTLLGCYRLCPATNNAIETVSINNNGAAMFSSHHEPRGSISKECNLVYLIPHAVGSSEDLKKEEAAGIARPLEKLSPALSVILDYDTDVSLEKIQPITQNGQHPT
pKi: −log10 of the molar value.
attribute_measured: pKi

Asked: State the recorded pKi for this entry: `NC(=O)c1ccccc1OCCCN1CCN(c2cccc3c2ccn3S(=O)(=O)c2ccccc2)CC1`
Given back: < 6.00

----------
biological target: 5-hydroxytryptamine receptor 7 (Homo sapiens)
Sequence (P34969 whole entry): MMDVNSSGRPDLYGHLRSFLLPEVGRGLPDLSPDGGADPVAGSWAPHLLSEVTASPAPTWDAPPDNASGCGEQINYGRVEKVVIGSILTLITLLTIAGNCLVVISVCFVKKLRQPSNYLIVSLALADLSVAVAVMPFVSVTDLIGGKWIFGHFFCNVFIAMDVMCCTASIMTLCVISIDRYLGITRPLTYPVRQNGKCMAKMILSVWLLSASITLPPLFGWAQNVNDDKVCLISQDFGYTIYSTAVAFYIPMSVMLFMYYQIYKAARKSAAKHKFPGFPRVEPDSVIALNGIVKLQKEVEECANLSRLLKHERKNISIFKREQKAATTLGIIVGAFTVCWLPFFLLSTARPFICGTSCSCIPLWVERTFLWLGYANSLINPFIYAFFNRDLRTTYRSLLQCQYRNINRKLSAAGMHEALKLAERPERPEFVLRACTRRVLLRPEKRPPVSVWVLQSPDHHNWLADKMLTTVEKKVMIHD
attribute_measured: Ki (nM)
Could you give me the number in nM? Just the number is fine.

Asked: # lookup: Ki of `NC(=O)c1ccccc1OCCCN1CCN(c2cccc3c2ccn3S(=O)(=O)c2ccccc2)CC1`
Given back: 180

----------
biological target: UniProtKB P35462
Sequence (P35462 whole entry): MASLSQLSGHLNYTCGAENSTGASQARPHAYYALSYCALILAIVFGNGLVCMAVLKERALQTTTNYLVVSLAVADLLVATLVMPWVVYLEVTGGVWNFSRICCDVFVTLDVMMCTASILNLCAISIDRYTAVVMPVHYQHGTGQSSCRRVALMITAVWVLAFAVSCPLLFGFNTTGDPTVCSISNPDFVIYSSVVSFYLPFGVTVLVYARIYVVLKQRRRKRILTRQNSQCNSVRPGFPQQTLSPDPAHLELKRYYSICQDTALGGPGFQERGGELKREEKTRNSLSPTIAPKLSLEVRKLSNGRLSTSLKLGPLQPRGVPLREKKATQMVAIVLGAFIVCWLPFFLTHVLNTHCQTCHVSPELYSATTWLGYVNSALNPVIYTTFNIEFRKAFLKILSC
attribute_measured: Ki (nM)
Number in nM, nothing else.

Asked: Recall the recorded Ki for `NC(=O)c1ccccc1OCCCN1CCN(c2cccc3c2ccn3S(=O)(=O)c2ccccc2)CC1` with UniProtKB P35462 and state it.
Given back: 0.1

----------
test: Metabolic stability in human liver microsomes assessed as compound remaining after 30 mins at 1 x 10^-7 M (reference value: 100%); assay type: ADME; conditions: read-out: Stability
attribute_measured: remaining at 0.5 h, 0.1 µM
Respond with the figure and its unit, in that order.

Asked: So what does the record say about remaining at 0.5 h, 0.1 µM for `NC(=O)c1ccccc1OCCCN1CCN(c2cccc3c2ccn3S(=O)(=O)c2ccccc2)CC1` ?
Given back: 79.3%

----------
biological target: D(2) dopamine receptor (Homo sapiens, UniProt P14416); assay: biochemical
Sequence (P14416 whole entry): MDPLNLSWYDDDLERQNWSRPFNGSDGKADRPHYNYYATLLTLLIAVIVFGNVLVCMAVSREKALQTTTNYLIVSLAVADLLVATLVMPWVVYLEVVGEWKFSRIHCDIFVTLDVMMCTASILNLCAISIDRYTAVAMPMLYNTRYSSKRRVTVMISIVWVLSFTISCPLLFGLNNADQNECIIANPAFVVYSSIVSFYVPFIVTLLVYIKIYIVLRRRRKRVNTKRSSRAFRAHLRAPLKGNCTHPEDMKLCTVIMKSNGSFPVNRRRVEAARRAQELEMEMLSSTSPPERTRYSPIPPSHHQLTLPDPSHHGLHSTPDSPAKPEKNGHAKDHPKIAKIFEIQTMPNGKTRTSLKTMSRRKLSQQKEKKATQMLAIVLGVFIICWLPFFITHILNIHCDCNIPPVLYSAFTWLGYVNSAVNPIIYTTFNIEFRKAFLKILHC
attribute_measured: pKi
Give only the number. pKi is defined as minus log10 of concentration in molar units.

Asked: Query for D(2) dopamine receptor (Homo sapiens, UniProt P14416): what pKi does the record show for `NC(=O)c1ccccc1OCCCN1CCN(c2cccc3c2ccn3S(=O)(=O)c2ccccc2)CC1` ?
Given back: 8.20

----------
target: D(2) dopamine receptor (Homo sapiens, UniProt P14416); assay: Agonist activity at human dopamine D2 receptor expressed in CHOK1 cells assessed as calcium mobilization at 1 uM by radiometric and luminescence plate counting method; assay type: functional, cell-based; details: CHO-K1
attribute_measured: inhibition (%)
Write down the numeric answer in % and omit the unit.

smiles_entry: O=C1CCc2ccc(OCCCCN3CCN(c4cccc5c4ccn5Cc4ccccc4)CC3)cc2N1
system_under_test: D(2) dopamine receptor (Homo sapiens, UniProt P14416)
scale_unit: %
test_value: 42
--
smiles_entry: O=C1CCc2ccc(OCCCCN3CCN(c4cccc5c4ccn5Cc4cccc(Cl)c4)CC3)cc2N1
system_under_test: D(2) dopamine receptor (Homo sapiens, UniProt P14416)
scale_unit: %
test_value: 37
--
smiles_entry: O=C1CCc2ccc(OCCCCN3CCN(c4cccc5c4ccn5Cc4cccc(F)c4)CC3)cc2N1
system_under_test: D(2) dopamine receptor (Homo sapiens, UniProt P14416)
scale_unit: %
test_value: 39

Asked: Any idea what inhibition was measured for `O=C1CCc2ccc(OCCCCN3CCN(c4cccc5c4ccn5S(=O)(=O)c4ccccc4)CC3)cc2N1` ?
Given back: 48

----------
test: Intrinsic clearance in human liver microsomes at 1 x 10^-7 M; assay type: ADME; settings: read-out: CLH
attribute_measured: microsomal CLint at 0.1 µM

Asked: # input molecule: `NC(=O)c1ccccc1OCCCN1CCN(c2cccc3c2ccn3S(=O)(=O)c2ccccc2)CC1` ; wanted: its microsomal CLint at 0.1 µM
Given back: < 116 µL/min/mg

----------
Target: D(4) dopamine receptor (Homo sapiens, UniProt P21917)
Sequence (P21917 whole entry): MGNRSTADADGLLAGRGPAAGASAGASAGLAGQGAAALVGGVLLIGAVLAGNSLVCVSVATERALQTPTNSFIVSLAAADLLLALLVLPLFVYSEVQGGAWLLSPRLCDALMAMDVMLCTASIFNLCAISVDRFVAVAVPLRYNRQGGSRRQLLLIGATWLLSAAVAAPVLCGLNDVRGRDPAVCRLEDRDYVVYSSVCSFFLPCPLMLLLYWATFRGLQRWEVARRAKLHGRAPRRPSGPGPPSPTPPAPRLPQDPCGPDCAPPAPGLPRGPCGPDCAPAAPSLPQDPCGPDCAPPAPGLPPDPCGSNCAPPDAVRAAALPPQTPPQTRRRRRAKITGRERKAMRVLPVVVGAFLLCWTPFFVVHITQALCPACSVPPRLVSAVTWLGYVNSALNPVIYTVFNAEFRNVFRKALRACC
attribute_measured: Ki (nM)
Give the value in nM but do not write nM after it.

Asked: Suppose we examine the molecule `NC(=O)c1ccccc1OCCCN1CCN(c2cccc3c2ccn3S(=O)(=O)c2ccccc2)CC1` ; what Ki value has been reported?
Given back: 7.1

----------
Known Ki of a selection of compounds
molecular target: D(2) dopamine receptor (Homo sapiens); experiment: biochemical
I only need the number, in nM, no unit after it.

Answered examples (2):
smiles_entry: NC(=O)c1ccccc1OCCCN1CCC(c2cn(S(=O)(=O)c3ccccc3)c3ccccc23)CC1
scale_unit: nM
Ki: 62

smiles_entry: CC(C)Oc1ccccc1OCCCN1CCN(c2cccc3c2ccn3S(=O)(=O)c2ccccc2)CC1
scale_unit: nM
Ki: 110

Next item in the queue.
Asked: Item `NC(=O)c1ccccc1OCCCN1CCN(c2cccc3c2ccn3Cc2cccc(Cl)c2)CC1` has what recorded Ki?
Given back: 76
